# Test system: MPNST multicellular tumor spheroids, viability % test/control
# testMethodNotes: Anticancer human tumor MPNST cell line growth inhibition;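 also: spheroids exposed to agents for seven days after three days of growth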
# runParameters: curve of first compound; second compound 31.6 µM
propertyMeasured: pIC50
Lab note — pIC50 values are minus log10 of concentrations in M.

Below, 2 compounds whose answers are already recorded.
CC1COCCN1c1cc(-c2ccnn2C)c2ccnc(-c3ccn[nH]3)c2n1 (stereo not given) + Cn1nnc2c(C(N)=O)ncn2c1=O : 6.41
Cn1ncnc1[C@H]1c2n[nH]c(=O)c3cc(F)cc(c23)N[C@@H]1c1ccc(F)cc1 + Cn1nnc2c(C(N)=O)ncn2c1=O : 6.30

Lab note: measured pIC50 of COc1ccc([C@@H](O)c2cc(-c3ncnc4cc(N5CCOCC5)ccc34)c(F)cc2Cl)nn1 + Cn1nnc2c(C(N)=O)ncn2c1=O was 5.68

Lab note: measured pIC50 of O=C(c1cc(Cc2n[nH]c(=O)c3ccccc23)ccc1F)N1CCN(C(=O)C2CC2)CC1 + Cn1nnc2c(C(N)=O)ncn2c1=O was 4.79

----------
Property: viability, T/C; scope: individual compounds
# Tested on: MPNST multicellular tumor spheroids, viability % test/control
# testMethodNotes: Anticancer human tumor MPNST cell line growth inhibition;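 also: spheroids exposed to agents for seven days after three days of growth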;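 as to viability, T/C: luminescence signal used as surrogate for viable cell amount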
# runParameters: second compound 1 µM; first compound 0.316 µM; stronger effect = lower value
# Method: Multicellular complex tumor spheroid response to DNA repair inhibitors in combination with DNA-damaging drugs This study explores the anticancer activities of DNA-damaging drugs and inhibitors of DNA damage repair, both as single agents and in combinations. […] Twenty-six patient-derived or established malignant cell lines were evaluated representing sarcoma, melanoma, small cell lung cancer (SCLC), non-small cell lung cancer (NSCLC), as well as bladder, ovarian and pancreatic cancers. […]
Provide only the numeric value, understood in %.

COc1ccc([C@@H](O)c2cc(-c3ncnc4cc(N5CCOCC5)ccc34)c(F)cc2Cl)nn1 + Cn1nnc2c(C(N)=O)ncn2c1=O : 73.2
CC(C)n1c(=O)n(C)c2cnc3cc(F)c(-c4ccc(OCCCN5CCCCC5)nc4)cc3c21 + Cn1nnc2c(C(N)=O)ncn2c1=O : 82.6
Cc1cc(C)c(CNC(=O)c2cc(-c3ccc(CN4CCOCC4)cc3)cc3c2cnn3C2CCCC2)c(=O)[nH]1 + Cn1nnc2c(C(N)=O)ncn2c1=O : 101
[2H]c1nc(C)nc([2H])c1-c1cc(NC[C@@H](C)c2cccc3c(C(=O)NC)ccnc23)ncn1 + Cn1nnc2c(C(N)=O)ncn2c1=O : 93.2

MPNST multicellular tumor spheroids, viability % test/control data for CC1COCCN1c1cc(-c2ccnn2C)c2ccnc(-c3ccn[nH]3)c2n1 (stereo unspecified) + Cn1nnc2c(C(N)=O)ncn2c1=O ; its viability, T/C: 45.8

MPNST multicellular tumor spheroids, viability % test/control data for COc1cc(C)[nH]c(=O)c1CN1CCc2c(Cl)cc(C(OC)C3COC3)c(Cl)c2C1=O (stereo unspecified) + Cn1nnc2c(C(N)=O)ncn2c1=O ; its viability, T/C: 78.7

----------
# Tested on: MPNST multicellular tumor spheroids, viability % test/control
# testMethodNotes: Anticancer human tumor MPNST cell line growth inhibition;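 also: spheroids exposed to agents for seven days after three days of growth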;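 as to viability, T/C: luminescence signal used as surrogate for viable cell amount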
# runParameters: second compound 0.03 µM; first compound 1 µM; stronger effect = lower value
Property: viability, T/C; scope: individual compounds
Provide only the numeric value, understood in %.

Below, 2 compounds whose answers are already recorded.
COc1cc(C)[nH]c(=O)c1CN1CCc2c(Cl)cc(C(OC)C3COC3)c(Cl)c2C1=O (stereo unspecified) + CC[C@@]1(O)C(=O)OCc2c1cc1n(c2=O)Cc2cc3c(CN(C)C)c(O)ccc3nc2-1 : 49.2
CC1COCCN1c1cc(-c2ccnn2C)c2ccnc(-c3ccn[nH]3)c2n1 (stereo unspecified) + CC[C@@]1(O)C(=O)OCc2c1cc1n(c2=O)Cc2cc3c(CN(C)C)c(O)ccc3nc2-1 : 34.6

Lab note: measured viability, T/C of [2H]c1nc(C)nc([2H])c1-c1cc(NC[C@@H](C)c2cccc3c(C(=O)NC)ccnc23)ncn1 + CC[C@@]1(O)C(=O)OCc2c1cc1n(c2=O)Cc2cc3c(CN(C)C)c(O)ccc3nc2-1 was 36.4

Lab note: measured viability, T/C of CC(C)n1c(=O)n(C)c2cnc3cc(F)c(-c4ccc(OCCCN5CCCCC5)nc4)cc3c21 + CC[C@@]1(O)C(=O)OCc2c1cc1n(c2=O)Cc2cc3c(CN(C)C)c(O)ccc3nc2-1 was 44.5

Lab note: measured viability, T/C of COc1ccc([C@@H](O)c2cc(-c3ncnc4cc(N5CCOCC5)ccc34)c(F)cc2Cl)nn1 + CC[C@@]1(O)C(=O)OCc2c1cc1n(c2=O)Cc2cc3c(CN(C)C)c(O)ccc3nc2-1 was 36.1

Lab note: measured viability, T/C of Cc1cc(C)c(CNC(=O)c2cc(-c3ccc(CN4CCOCC4)cc3)cc3c2cnn3C2CCCC2)c(=O)[nH]1 + CC[C@@]1(O)C(=O)OCc2c1cc1n(c2=O)Cc2cc3c(CN(C)C)c(O)ccc3nc2-1 was 53

----------
# Tested on: MPNST multicellular tumor spheroids, viability % test/control
# testMethodNotes: Anticancer human tumor MPNST cell line growth inhibition;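 also: spheroids exposed to agents for seven days after three days of growth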;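 as to viability, T/C: luminescence signal used as surrogate for viable cell amount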
# runParameters: second compound 0.03 µM; first compound 0.949 µM; stronger effect = lower value
propertyMeasured: viability, T/C (%)
Provide only the numeric value, understood in %.

Cn1ncnc1[C@H]1c2n[nH]c(=O)c3cc(F)cc(c23)N[C@@H]1c1ccc(F)cc1 + CC[C@@]1(O)C(=O)OCc2c1cc1n(c2=O)Cc2cc3c(CN(C)C)c(O)ccc3nc2-1 : 64

Lab note: measured viability, T/C of CNCc1ccc(-c2cc(-c3nc(-c4ccc(S(=O)(=O)C(C)C)cc4)cnc3N)on2)cc1 + CC[C@@]1(O)C(=O)OCc2c1cc1n(c2=O)Cc2cc3c(CN(C)C)c(O)ccc3nc2-1 was 63.7

Lab note: measured viability, T/C of O=C(c1cc(Cc2n[nH]c(=O)c3ccccc23)ccc1F)N1CCN(C(=O)C2CC2)CC1 + CC[C@@]1(O)C(=O)OCc2c1cc1n(c2=O)Cc2cc3c(CN(C)C)c(O)ccc3nc2-1 was 57

Lab note: measured viability, T/C of Cc1sc2c(c1C)C(c1ccc(Cl)cc1)=NC(CC(=O)Nc1ccc(O)cc1)c1nnc(C)n1-2 (centres undefined) + CC[C@@]1(O)C(=O)OCc2c1cc1n(c2=O)Cc2cc3c(CN(C)C)c(O)ccc3nc2-1 was 51.9

----------
# Test system: MPNST multicellular tumor spheroids, viability % test/control
# testMethodNotes: Anticancer human tumor MPNST cell line growth inhibition;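 also: spheroids exposed to agents for seven days after three days of growth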;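 as to viability, T/C: luminescence signal used as surrogate for viable cell amount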
# runParameters: second compound 0.003 µM; first compound 3.16 µM; stronger effect = lower value
We label by threshold. Values of viability, T/C strictly beneath 10% are fulfilled. Values of 10% and up are not fulfilled.

Would you please look over these solved cases?
[2H]c1nc(C)nc([2H])c1-c1cc(NC[C@@H](C)c2cccc3c(C(=O)NC)ccnc23)ncn1 + CC[C@@]1(O)C(=O)OCc2c1cc1n(c2=O)Cc2cc3c(CN(C)C)c(O)ccc3nc2-1 : not fulfilled
[2H]c1nc(C)nc([2H])c1-c1cc(NC[C@@H](C)c2cccc3c(C(=O)NC)ccnc23)ncn1 + COc1cc2c(cc1O)CCNC21CSC2c3c(OC(C)=O)c(C)c4c(c3C(COC1=O)N1C(O)C3Cc5cc(C)c(OC)c(O)c5C(C21)N3C)OCO4 : fulfilled

In: Is 10% strictly greater than the compound's reported viability, T/C? compound: Cc1cc(C)c(CNC(=O)c2cc(-c3ccc(CN4CCOCC4)cc3)cc3c2cnn3C2CCCC2)c(=O)[nH]1 + COc1cc2c(cc1O)CCNC21CSC2c3c(OC(C)=O)c(C)c4c(c3C(COC1=O)N1C(O)C3Cc5cc(C)c(OC)c(O)c5C(C21)N3C)OCO4
Out: not fulfilled

In: Is 10% strictly greater than the compound's reported viability, T/C? compound: COc1cc(C)[nH]c(=O)c1CN1CCc2c(Cl)cc(C(OC)C3COC3)c(Cl)c2C1=O (configuration not stated) + CC[C@@]1(O)C(=O)OCc2c1cc1n(c2=O)Cc2cc3c(CN(C)C)c(O)ccc3nc2-1
Out: not fulfilled

In: Is 10% strictly greater than the compound's reported viability, T/C? compound: CC1COCCN1c1cc(-c2ccnn2C)c2ccnc(-c3ccn[nH]3)c2n1 (configuration not stated) + COc1cc2c(cc1O)CCNC21CSC2c3c(OC(C)=O)c(C)c4c(c3C(COC1=O)N1C(O)C3Cc5cc(C)c(OC)c(O)c5C(C21)N3C)OCO4
Out: fulfilled

In: Is 10% strictly greater than the compound's reported viability, T/C? compound: CC(C)n1c(=O)n(C)c2cnc3cc(F)c(-c4ccc(OCCCN5CCCCC5)nc4)cc3c21 + CC[C@@]1(O)C(=O)OCc2c1cc1n(c2=O)Cc2cc3c(CN(C)C)c(O)ccc3nc2-1
Out: not fulfilled

----------
Property: viability, T/C; scope: individual molecules
# Tested on: MPNST multicellular tumor spheroids, viability % test/control
# testMethodNotes: Anticancer human tumor MPNST cell line growth inhibition;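 also: spheroids exposed to agents for seven days after three days of growth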;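 as to viability, T/C: luminescence signal used as surrogate for viable cell amount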
# runParameters: second compound 10 µM; first compound 0.0316 µM; stronger effect = lower value
Provide only the numeric value, understood in %.

[2H]c1nc(C)nc([2H])c1-c1cc(NC[C@@H](C)c2cccc3c(C(=O)NC)ccnc23)ncn1 + Cn1nnc2c(C(N)=O)ncn2c1=O : 81.1
COc1cc(C)[nH]c(=O)c1CN1CCc2c(Cl)cc(C(OC)C3COC3)c(Cl)c2C1=O (stereo not drawn) + Cn1nnc2c(C(N)=O)ncn2c1=O : 81.5

Lab note: measured viability, T/C of Cc1cc(C)c(CNC(=O)c2cc(-c3ccc(CN4CCOCC4)cc3)cc3c2cnn3C2CCCC2)c(=O)[nH]1 + Cn1nnc2c(C(N)=O)ncn2c1=O was 75.3
